Here, compounds appear alongside pIC50 reported for PIK3CA (human) (UniProt P42336) in the literature.
pIC50: −log10 of the molar value.

Nc1ccc(-c2ccc3[nH]c(=O)cc(Oc4ccccc4)c3c2)cc1 :: 5.18
Cc1cc(C(=O)Nc2cccc(-c3cnc4c(N5CCOCC5)nc(-c5cnc(N)nc5)nc4c3)c2)[nH]n1 :: > 7.30

Q: Fill blank: measured pIC50 of the compound O=c1cc(Oc2ccc(-c3ccsc3)cc2)c2ccccc2[nH]1 is ____.
Ans: 5.60

Q: Same for C[C@H](Nc1ccnn2ccnc12)c1cc2cccc(Cl)c2c(=O)n1C1CC1
Ans: 5.00 to 6.00

Q: // same read-out, input: Nc1nc2cc(-c3ccc4sc(N)nc4c3)cc(F)c2o1
Ans: > 5.00

Q: Would you mind doing Cc1nc2ccc(-c3ccc4c(c3)CN(C(=O)N3C5CCC3c3ccccc35)CCO4)cc2[nH]1 as well?
Ans: 6.30 to 6.70

Q: Same thing, different compound: CC(C)c1ccc(-c2nc(Oc3ccc4[nH]ccc4c3)c3cnn(C)c3n2)cc1
Ans: 5.42

Q: Then this compound: Cc1cccc2cc(Cn3nc(-c4cc(O)cc(F)c4)c4c(N)ncnc43)n(C3CC3)c(=O)c12
Ans: > 6.00

Q: Would you kindly repeat that for Nc1ncc(-c2ccc3ncc4nnn(C5CCN(CC6CC6)CC5)c4c3n2)cc1C(F)(F)F ?
Ans: > 7.00
